assayed target: human muscarinic M1 receptor (Homo sapiens)
assay method text: Alphascreen Surefire phospho-ERK1/2 functional assay, M1
Assay type: cell-based
condition notes: CHO, read-out: % Emax cf. ACh (M1), CHO cells stably expressing human M1; Emax relative to ACh
quantity: Emax (%)
Record the value in %, omitting the unit from your answer.

Cc1noc(N2CC3CC(C2)C3N2CCC(n3cccn3)CC2)n1 (single isomer, unassigned) [5-1 Isomer 1]; 9
Cc1noc(N2C3COCC2CC(N2CCC(n4cccn4)CC2)C3)n1 (single isomer, unassigned) [9-1 Isomer 1]; 15
Cc1noc(N2CCCC(N3CCC4(CC3)CNC(=O)C4)CC2)n1 (single isomer, unassigned) [10-2 Isomer 1]; 66
Cc1noc(N2C3CCCC2CC(N2CCC4(CC2)CNC(=O)C4)C3)n1 (single isomer, unassigned) [8-2 Isomer 1]; 30
Cc1noc(N2C3CCC2CC(N2CCC(C(=O)NC4(C)CCCC4)CC2)C3)n1 (single isomer, unassigned) [12-11 Isomer 2]; 103

Inquiry: Query: Emax; subject: Cc1noc(N2CCCC(N3CCC4(CC3)OC(=O)NC4(C)C)CC2)n1 (single isomer, unassigned) [10-5 Isomer 1]
Reply text: 21

Inquiry: Given the molecule Cc1noc(N2CCCC(N3CCC(N4CC(F)(F)C[C@@H]4CO)CC3)CC2)n1 (single isomer, unassigned) [10-8 Isomer 1] , what is its reported Emax?
Reply text: 37

----------
assayed target: human muscarinic M4 receptor (Homo sapiens, UniProt P08173)
Construct: expressed in transfected cells
Sequence (P08173 whole entry): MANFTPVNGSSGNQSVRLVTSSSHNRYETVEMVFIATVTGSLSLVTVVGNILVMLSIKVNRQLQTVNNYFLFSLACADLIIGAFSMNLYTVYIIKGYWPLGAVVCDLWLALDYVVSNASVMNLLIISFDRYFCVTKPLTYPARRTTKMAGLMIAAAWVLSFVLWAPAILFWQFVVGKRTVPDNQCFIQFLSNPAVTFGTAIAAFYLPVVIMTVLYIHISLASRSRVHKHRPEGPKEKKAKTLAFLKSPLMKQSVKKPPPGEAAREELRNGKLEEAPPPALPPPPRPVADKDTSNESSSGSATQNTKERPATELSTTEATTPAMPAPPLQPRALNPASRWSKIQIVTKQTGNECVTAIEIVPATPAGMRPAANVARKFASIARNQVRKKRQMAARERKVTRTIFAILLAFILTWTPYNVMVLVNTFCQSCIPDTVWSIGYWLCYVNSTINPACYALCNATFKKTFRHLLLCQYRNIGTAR
assay method text: Alphascreen Surefire phospho-ERK1/2 functional assay, M4
Type: cell-based
condition notes: CHO, read-out: % Emax cf. ACh (M4), CHO cells stably expressing human M4; Emax relative to ACh
quantity: Emax (%)
Respond numerically; units are % and should not be typed.

Inquiry: Item: Cc1noc(N2CCC3(CC(N4CCC(C#N)(c5ccccc5)CC4)C3)C2)n1 (single isomer, unassigned) [2-2 Isomer 2] Test system: human muscarinic M4 receptor (Homo sapiens, UniProt P08173) Read-out: Emax Value: ?
Reply text: 51

Inquiry: Give the reported Emax for Cc1noc(N2C3CCCC2CC(N2CCC4(CC2)CNC(=O)O4)C3)n1 (single isomer, unassigned) [8-3 Isomer 1] (system: human muscarinic M4 receptor (Homo sapiens, UniProt P08173)).
Reply text: 67

Inquiry: Form: Entry = Cc1noc(N2CCCC(N3CCC(N4CCCC4c4cnn(C)c4)CC3)CC2)n1 (single isomer, unassigned) [10-10 Isomer 1b] | System = human muscarinic M4 receptor (Homo sapiens, UniProt P08173) | Emax = ____
Reply text: 56

Inquiry: Could you share what Emax was measured for CCC1(NC(=O)C2CCN(C3CC4CCC(C3)N4c3nc(C)no3)CC2)CCC1 (single isomer, unassigned) [12-8 Isomer 2] , tested on human muscarinic M4 receptor (Homo sapiens, UniProt P08173)?
Reply text: 109

----------
molecules and their reported EC50
assayed target: human muscarinic M1 receptor (Homo sapiens, UniProt P11229)
Sequence (P11229 whole entry): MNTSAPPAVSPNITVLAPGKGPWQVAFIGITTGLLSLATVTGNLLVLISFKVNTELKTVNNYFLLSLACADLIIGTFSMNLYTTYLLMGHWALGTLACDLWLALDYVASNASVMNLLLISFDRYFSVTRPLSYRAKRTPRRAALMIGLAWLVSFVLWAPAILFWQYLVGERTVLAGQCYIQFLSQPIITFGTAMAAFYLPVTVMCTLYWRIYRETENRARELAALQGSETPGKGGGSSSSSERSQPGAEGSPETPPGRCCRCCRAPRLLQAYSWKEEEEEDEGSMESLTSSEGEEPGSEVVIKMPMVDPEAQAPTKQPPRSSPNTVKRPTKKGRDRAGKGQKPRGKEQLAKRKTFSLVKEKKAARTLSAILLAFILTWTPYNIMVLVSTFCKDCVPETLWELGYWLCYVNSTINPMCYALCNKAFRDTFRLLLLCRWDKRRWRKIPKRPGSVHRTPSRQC
assay method text: Alphascreen Surefire phospho-ERK1/2 functional assay, M1
Format: cell-based
condition notes: CHO cells stably expressing human M1; agonist 5 min, 37° C.; read-out: pEC50 M1 (converted)
Supply the numeric figure in nM, leaving out any unit text.

These recorded examples may help you get a feel for the data.
Cc1noc(N2CC3CCC2CC3N2CCC3(CC2)CNC(=O)C3)n1 (single isomer, unassigned) [12-1 Isomer 1]; 603
Cc1noc(N2CC3CCC2CC3N2CCC3(CC2)CNC(=O)O3)n1 (single isomer, unassigned) [12-2 Isomer 2]; 398
CCC1NC(=O)OC12CCN(C1CCCN(c3nc(C)no3)CC1)CC2 (single isomer, unassigned) [10-4 Isomer 1]; 676
Cc1noc(N2CCCC(N3CCC(N4C[C@H](F)C[C@@H]4CO)CC3)CC2)n1 (single isomer, unassigned) [10-7 Isomer 2]; 4270
Cc1noc(N2CCCC(N3CCC(N4CC(F)(F)C[C@@H]4CO)CC3)CC2)n1 (single isomer, unassigned) [10-8 Isomer 1]; 676

Next molecule, please.
Inquiry: Would you mind telling me what EC50 value was observed for Cc1noc(N2CCCC(N3CCC(N4C[C@H](F)C[C@@H]4CO)CC3)CC2)n1 (single isomer, unassigned) [10-7 Isomer 1] ?
Reply text: 3720
